Test method notes: Metabolic stability in human liver microsome assessed as half life measured upto 45 mins in presence of NADPH by LC-MS/MS analysis
Format: ADME
Experimental setup: liver microsomes
What half-life was measured for each of the following?
Just the number please, in min, no unit attached.

Quick one: half-life of O=C(c1ccc(F)cc1)C1CCN(CCn2c(=O)[nH]c3ccccc3c2=O)CC1 [KETANSERIN] ? 31.1

Given COc1ccc(/C=C/C(=O)c2ccc(O)c(O)c2)cc1OCC1CC1 , state its recorded half-life. 48
